# Tested on: Renilla luciferase (RLuc)
# ASSAY_OVERVIEW: normalised percent inhibition of luminescence (vs positive and negative controls); higher = stronger inhibition
# CONDITION_NOTES: metal salt concentration 2.5 mM; screening conditions buffer
So I've got a bunch of compounds here, and I need their normalised percent inhibition values.
Output spec: scalar in %, unitless text.

Per the record, O=S(=O)([O-])[O-].[Fe+2] [iron(II) sulfate] has normalised percent inhibition of 104

Per the record, O=[N+]([O-])[O-].O=[N+]([O-])[O-].[Cd+2] [cadmium nitrate] has normalised percent inhibition of 79.4

Per the record, O=[N+]([O-])[O-].O=[N+]([O-])[O-].O=[N+]([O-])[O-].[Ga+3] [gallium(III) nitrate] has normalised percent inhibition of -0.965

Per the record, O=[N+]([O-])[O-].O=[N+]([O-])[O-].[Zn+2] [zinc nitrate] has normalised percent inhibition of -1

Per the record, [Cl][Sn][Cl] [tin(II) chloride] has normalised percent inhibition of -6.8

Per the record, O=[N+]([O-])[O-].O=[N+]([O-])[O-].[Pb+2] [lead(II) nitrate] has normalised percent inhibition of 53.3

Per the record, O=[N+]([O-])[O-].O=[N+]([O-])[O-].[Cu+2] [copper(II) nitrate] has normalised percent inhibition of 106

Per the record, O=[N+]([O-])[O-].[Ag+] [silver nitrate] has normalised percent inhibition of 106

Per the record, [Cl][Fe][Cl] [iron(II) chloride] has normalised percent inhibition of 105

Per the record, [Cl][Fe]([Cl])[Cl] [iron(III) chloride] has normalised percent inhibition of 94.4

Per the record, [Cl][Pt-2]([Cl])([Cl])[Cl].[K+].[K+] [potassium tetrachloroplatinate(II)] has normalised percent inhibition of 105

Per the record, CC#N.CC#N.CC#N.CC#N.F[B-](F)(F)F.[Cu+] [tetrakis(acetonitrile)copper(I) tetrafluoroborate] has normalised percent inhibition of 107

----------
# Tested on: NanoLuc luciferase (NLuc)
# ASSAY_OVERVIEW: normalised percent inhibition of luminescence (vs positive and negative controls); higher = stronger inhibition
# CONDITION_NOTES: metal salt concentration 0.5 mM; screening conditions buffer
just bin them by normalised percent inhibition: low end: < 50%; middle: ≥ 50% and < 90%; high end: ≥ 90%

[Q] Could you tell me which band O=S(=O)([O-])[O-].[Fe+2] [iron(II) sulfate] belongs to?
[A] middle

[Q] Could you tell me which band O=[N+]([O-])[O-].[Ag+] [silver nitrate] belongs to?
[A] high end

[Q] Could you tell me which band CC#N.CC#N.CC#N.CC#N.F[B-](F)(F)F.[Cu+] [tetrakis(acetonitrile)copper(I) tetrafluoroborate] belongs to?
[A] high end

[Q] Could you tell me which band [Cl][Fe][Cl] [iron(II) chloride] belongs to?
[A] middle

[Q] Could you tell me which band [Cl][Fe]([Cl])[Cl] [iron(III) chloride] belongs to?
[A] middle

[Q] Could you tell me which band O=[N+]([O-])[O-].O=[N+]([O-])[O-].[Zn+2] [zinc nitrate] belongs to?
[A] middle

[Q] Could you tell me which band O=[N+]([O-])[O-].O=[N+]([O-])[O-].[Cd+2] [cadmium nitrate] belongs to?
[A] low end

[Q] Could you tell me which band O=[N+]([O-])[O-].O=[N+]([O-])[O-].O=[N+]([O-])[O-].[Ga+3] [gallium(III) nitrate] belongs to?
[A] low end

----------
# System: Renilla luciferase (RLuc)
# ASSAY_OVERVIEW: normalised percent inhibition of luminescence (vs positive and negative controls); higher = stronger inhibition
# CONDITION_NOTES: metal salt concentration 0.1 mM; screening conditions buffer
MEASURED_ATTRIBUTE: normalised percent inhibition (%)
Output spec: scalar in %, unitless text.

Per the record, O=[N+]([O-])[O-].O=[N+]([O-])[O-].[Cu+2] [copper(II) nitrate] has normalised percent inhibition of -8.47

Per the record, O=[N+]([O-])[O-].O=[N+]([O-])[O-].[Cd+2] [cadmium nitrate] has normalised percent inhibition of -1.09

Per the record, CC#N.CC#N.CC#N.CC#N.F[B-](F)(F)F.[Cu+] [tetrakis(acetonitrile)copper(I) tetrafluoroborate] has normalised percent inhibition of 9.12

Per the record, O=[N+]([O-])[O-].[Ag+] [silver nitrate] has normalised percent inhibition of 81.2

Per the record, O=[N+]([O-])[O-].O=[N+]([O-])[O-].O=[N+]([O-])[O-].[Ga+3] [gallium(III) nitrate] has normalised percent inhibition of -7.99

----------
# Test system: firefly luciferase (FLuc)
# ASSAY_OVERVIEW: normalised percent inhibition of luminescence (vs positive and negative controls); higher = stronger inhibition
# CONDITION_NOTES: metal salt concentration 0.05 mM; screening conditions buffer
Returns one of Yes or No; Yes when normalised percent inhibition is >= 20%.

[Q] Kindly determine if normalised percent inhibition recorded for [Cl][Fe]([Cl])[Cl] [iron(III) chloride] is above or exactly 20%.
[A] Yes

[Q] Kindly determine if normalised percent inhibition recorded for [Cl][Pt-2]([Cl])([Cl])[Cl].[K+].[K+] [potassium tetrachloroplatinate(II)] is above or exactly 20%.
[A] Yes

[Q] Kindly determine if normalised percent inhibition recorded for O=[N+]([O-])[O-].O=[N+]([O-])[O-].[Zn+2] [zinc nitrate] is above or exactly 20%.
[A] No

[Q] Kindly determine if normalised percent inhibition recorded for O=S(=O)([O-])[O-].[Fe+2] [iron(II) sulfate] is above or exactly 20%.
[A] No

[Q] Kindly determine if normalised percent inhibition recorded for [Cl][Sn][Cl] [tin(II) chloride] is above or exactly 20%.
[A] No

[Q] Kindly determine if normalised percent inhibition recorded for O=[N+]([O-])[O-].[Ag+] [silver nitrate] is above or exactly 20%.
[A] Yes

[Q] Kindly determine if normalised percent inhibition recorded for [Cl][Fe][Cl] [iron(II) chloride] is above or exactly 20%.
[A] No

[Q] Kindly determine if normalised percent inhibition recorded for CC#N.CC#N.CC#N.CC#N.F[B-](F)(F)F.[Cu+] [tetrakis(acetonitrile)copper(I) tetrafluoroborate] is above or exactly 20%.
[A] No

----------
So I've got a bunch of compounds here, and I need their normalised percent inhibition values.
# System: Renilla luciferase (RLuc)
# ASSAY_OVERVIEW: normalised percent inhibition of luminescence (vs positive and negative controls); higher = stronger inhibition
# CONDITION_NOTES: metal salt concentration 0.1 mM; 100 mM HEPES buffer
Output spec: scalar in %, unitless text.

Per the record, [Cl][Fe][Cl] [iron(II) chloride] has normalised percent inhibition of 86.8

Per the record, O.O.O.O.O.O.O.O=S(=O)([O-])[O-].[Mg+2] [magnesium sulfate] has normalised percent inhibition of -22.7

Per the record, O=S(=O)([O-])[O-].[Fe+2] [iron(II) sulfate] has normalised percent inhibition of 85.8

Per the record, [Cl][Pt-2]([Cl])([Cl])[Cl].[K+].[K+] [potassium tetrachloroplatinate(II)] has normalised percent inhibition of 5.67

Per the record, [Cl][Sn][Cl] [tin(II) chloride] has normalised percent inhibition of -35

Per the record, [Cl][Fe]([Cl])[Cl] [iron(III) chloride] has normalised percent inhibition of 61.1

Per the record, O=[N+]([O-])[O-].O=[N+]([O-])[O-].[Cu+2] [copper(II) nitrate] has normalised percent inhibition of 107

Per the record, CC#N.CC#N.CC#N.CC#N.F[B-](F)(F)F.[Cu+] [tetrakis(acetonitrile)copper(I) tetrafluoroborate] has normalised percent inhibition of 105

Per the record, O=[N+]([O-])[O-].O=[N+]([O-])[O-].[Cd+2] [cadmium nitrate] has normalised percent inhibition of 18

Per the record, O=[N+]([O-])[O-].[Ag+] [silver nitrate] has normalised percent inhibition of 107

----------
So I've got a bunch of compounds here, and I need their normalised percent inhibition values.
# Test system: Renilla luciferase (RLuc)
# ASSAY_OVERVIEW: normalised percent inhibition of luminescence (vs positive and negative controls); higher = stronger inhibition
# CONDITION_NOTES: metal salt concentration 0.2 mM; screening conditions buffer
Enter the number, and then the unit.

Per the record, CC#N.CC#N.CC#N.CC#N.F[B-](F)(F)F.[Cu+] [tetrakis(acetonitrile)copper(I) tetrafluoroborate] has normalised percent inhibition of 3.41%

Per the record, O=[N+]([O-])[O-].[Ag+] [silver nitrate] has normalised percent inhibition of 101%

Per the record, [Cl][Sn][Cl] [tin(II) chloride] has normalised percent inhibition of -3.23%

Per the record, O=[N+]([O-])[O-].O=[N+]([O-])[O-].[Zn+2] [zinc nitrate] has normalised percent inhibition of -2.75%

Per the record, O=[N+]([O-])[O-].O=[N+]([O-])[O-].O=[N+]([O-])[O-].[Ga+3] [gallium(III) nitrate] has normalised percent inhibition of -8.55%

Per the record, O=[N+]([O-])[O-].O=[N+]([O-])[O-].[Cd+2] [cadmium nitrate] has normalised percent inhibition of -5.06%

Per the record, O=[N+]([O-])[O-].O=[N+]([O-])[O-].[Pb+2] [lead(II) nitrate] has normalised percent inhibition of -6.41%

Per the record, [Cl][Fe]([Cl])[Cl] [iron(III) chloride] has normalised percent inhibition of 32.6%

Per the record, O=[N+]([O-])[O-].O=[N+]([O-])[O-].[Cu+2] [copper(II) nitrate] has normalised percent inhibition of 106%

Per the record, [Cl][Pt-2]([Cl])([Cl])[Cl].[K+].[K+] [potassium tetrachloroplatinate(II)] has normalised percent inhibition of 41.3%

Per the record, O=S(=O)([O-])[O-].[Fe+2] [iron(II) sulfate] has normalised percent inhibition of 74.4%

Per the record, [Cl][Fe][Cl] [iron(II) chloride] has normalised percent inhibition of 71.6%
